# ASSAY METHOD TEXT: Activity of Aminoglycoside […] 2a N196D/D268N mutant using ATP/GTP as second substrate by spectrophotometric assay
# reported kcat; entries follow
Kindly provide the numeric value in s⁻¹ only, without the unit symbol.

• NC[C@H]1O[C@H](O[C@H]2[C@H](O)[C@@H](O[C@H]3O[C@H](CO)[C@@H](O)[C@H](N)[C@H]3O)[C@H](N)C[C@@H]2N)[C@H](N)C[C@@H]1O [TOBRAMYCIN] = 16.6
• Nc1nc(=O)c2ncn([C@@H]3O[C@H](COP(=O)(O)OP(=O)(O)OP(=O)(O)O)[C@@H](O)C3O)c2[nH]1 (single isomer, unassigned) = 10.6
• NC[C@@H]1CC[C@@H](N)[C@@H](O[C@H]2[C@H](O)[C@@H](O[C@H]3O[C@H](CO)[C@@H](O)[C@H](N)[C@H]3O)[C@H](N)C[C@@H]2N)O1 [DIBEKACIN] = 16.9

The recorded kcat for entry NCC[C@H](O)C(=O)N[C@@H]1C[C@H](N)[C@@H](O[C@H]2O[C@H](CN)[C@@H](O)[C@H](O)[C@H]2O)[C@H](O)[C@H]1O[C@H]1O[C@H](CO)[C@@H](O)[C@H](N)[C@H]1O [AMIKACIN] equals 13.8

The recorded kcat for entry Nc1ncnc2c1ncn2[C@@H]1O[C@H](COP(=O)(O)OP(=O)(O)OP(=O)(O)O)[C@@H](O)[C@H]1O equals 12.1

The recorded kcat for entry CN[C@@H]1[C@@H](O)[C@@H](O[C@@H]2[C@@H](O)[C@H](O[C@H]3O[C@H](CN)[C@@H](O)[C@H](O)[C@H]3O)[C@@H](N)C[C@H]2NC(=O)[C@@H](O)CN)OC[C@]1(C)O [ISEPAMICIN] equals 4.1

The recorded kcat for entry NC[C@@H]1O[C@@H](O[C@H]2[C@H](O)[C@@H](O[C@H]3O[C@H](CO)[C@@H](O)[C@H](N)[C@H]3O)[C@H](N)C[C@@H]2N)[C@@H](O)[C@H](O)[C@H]1O [KANAMYCIN A] equals 13.8
